# Tgt: human serum albumin (HSA) (Homo sapiens)
# Sequence (P02768 25-609): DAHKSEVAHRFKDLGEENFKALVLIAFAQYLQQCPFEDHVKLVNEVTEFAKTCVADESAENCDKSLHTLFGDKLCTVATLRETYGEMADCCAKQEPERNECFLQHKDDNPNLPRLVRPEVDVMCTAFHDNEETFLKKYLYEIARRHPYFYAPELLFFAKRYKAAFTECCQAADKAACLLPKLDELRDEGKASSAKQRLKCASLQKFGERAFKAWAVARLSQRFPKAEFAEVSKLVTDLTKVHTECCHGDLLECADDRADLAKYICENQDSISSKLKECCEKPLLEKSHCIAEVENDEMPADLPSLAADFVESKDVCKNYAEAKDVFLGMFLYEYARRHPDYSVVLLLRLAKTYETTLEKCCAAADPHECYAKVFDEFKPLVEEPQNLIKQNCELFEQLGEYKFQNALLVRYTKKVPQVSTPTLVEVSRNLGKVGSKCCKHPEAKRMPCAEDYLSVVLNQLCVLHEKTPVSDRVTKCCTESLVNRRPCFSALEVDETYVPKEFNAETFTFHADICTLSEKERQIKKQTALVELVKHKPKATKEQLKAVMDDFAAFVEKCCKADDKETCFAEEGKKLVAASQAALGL
# Procedure summary: zonal elution, high-performance affinity chromatography on entrapped HSA
Property label: pKd
Give only the number. pKd is defined as minus log10 of concentration in molar units.

Use the examples below as a reference point.
Just so you know, measured pKd for O=C(N[C@H](CO)[C@H](O)c1ccc([N+](=O)[O-])cc1)C(Cl)Cl came out at 3.20

Just so you know, measured pKd for CNCCC=C1c2ccccc2CCc2ccccc21 came out at 4.79

Continuing:
Just so you know, measured pKd for CN(C)CCC=C1c2ccccc2CCc2ccccc21 came out at 4.75
